Catalogue of sequences with associated apparent KD of MS2 coat protein
- Test system: MS2 coat protein
- PROTOCOL_DETAILS: apparent KD of MS2 coat protein, switch ON state; designed switch direction (-1 OFF switch, 1 ON switch): 1; higher = weaker reporter binding
- CONDITION_PARAMETERS: FMN input: 0 or 200 uM; Eterna round: R93 (includes R88 designs)
Answer in nM, number only, no unit symbol.

Example cases with answers are listed next.
{"columns": ["RECORD_SEQUENCE", "TESTED_TARGET", "ASSAY_READOUT", "VALUE_UNIT", "NUMERIC_VALUE"],
 "data": [
  ["AAACCACAUGAGGAUCACCCAUGUAAAAAAUAUGGAGGAUAUACUAGAAGAAACAAAAUAGUAGAAGGCCAAAAAA [75%, Ex sub1, 29]", "MS2 coat protein", "apparent KD of MS2 coat protein", "nM", 20.3],
  ["AUAACACAUGAGGAUCACCCAUGUAGAAACAAGUCAGGAUAUGCAACCUCAUGAAAUAAAGCAGAAGGGACAAUAA [SS 1 Tesla 4]", "MS2 coat protein", "apparent KD of MS2 coat protein", "nM", 26.4],
  ["AUGGUCAAGUGUGAGGAUAUCCAGGCUCCCACAUGAGGAUCACCCAUGUUUAUUAGAGCGUAAAGGGAGAAGGUACGAACGCCAU [Esbibiti]", "MS2 coat protein", "apparent KD of MS2 coat protein", "nM", 15.6]
]}

Need apparent KD of MS2 coat protein of GGAACUACAGAUCAGGAUAUGUUUGGGUAAACAUGAGGAUCACCCAUGUGCACCCGAUACACAGGACAGAAGGGAUAACGUGGGA [Maondior] , thanks. 15.5

* * *

- Tested on: MS2 coat protein
- PROTOCOL_DETAILS: apparent KD of MS2 coat protein; higher = weaker reporter binding
- CONDITION_PARAMETERS: Eterna round: R107; input ligand: arginine 13.2 mM
ASSAY_READOUT: apparent KD of MS2 coat protein (nM)
Give just the number in nM; leave the unit off.

These solved cases illustrate the format of a correct answer.
{"columns": ["RECORD_SEQUENCE", "NUMERIC_VALUE"],
 "data": [
  ["AUUAUAGUUUAUAACGAAGUUGAUACAGAAGGAGCGUGAAUAAUCACAGGUAGGUCGCUGAUAAUACAUGAGGAUCACCCAUGUU [JR_Nu_SSArginiA_Sub018]", 20.7],
  ["ACAUGAGCAUCAGCCUUGUAGGAACUAGAUACCAGCCCAACAUGAGGCCCUUGGCAGCUGACAACAUGAGGAUCACCCAUGUCAC [Exclusion - Theophylline A #1]", 20.1],
  ["CUGACGGACUCGGCCGCCACUGAUAGUAGGACAUGAGGAUCACCCAUGUAAACGAACCUCAUAGCCAGGACCGGGAGUCACGAAG [Same State Tryptophan B GF 22]", 56.4],
  ["AUGUCGUUGAAUAUAGCGGCUUGGUGUGAUACCAGAAUGAUCUAAUUCCCUUGGCAGCAUUACAUGAGGAUCACCCAUGUUUAGG [SSTheo A #19]", 24.4],
  ["GAUGAACUAUUUGAUACCAGACUACAUGAGGAUCACCCAUGUGUGUUUAUACUUCAGUCAGUCCCUUGGCAGCAAAUAGUUUAUC [XTheo B #3]", 94.8],
  ["CUCUUCCGGAAGGAUACCAGCUACAUGAGGAUCACCCAUGUAGGAGCGGGUUUCUAAUGUAGCCCUUGGCAGCCUUAGCCCGUCG [Querarra]", 15.9]
]}

// next item, apparent KD of MS2 coat protein requested
# input sequence: ACAUGAGGAUCACCCAUGUGCAGAACGGAUACCAGCGUCCUGGUACGCCCUUGGCAGCCGGACAUGAGGAUCACCCAUGUGUGGA [Exclusion Theophylline A GF29] ; wanted: its apparent KD of MS2 coat protein 56
